- experimentalTarget: MCR-1 (Homo sapiens, UniProt Q01726)
- Construct: expressed in transfected cells; host or cells: HEK 293
- Sequence (Q01726 whole entry): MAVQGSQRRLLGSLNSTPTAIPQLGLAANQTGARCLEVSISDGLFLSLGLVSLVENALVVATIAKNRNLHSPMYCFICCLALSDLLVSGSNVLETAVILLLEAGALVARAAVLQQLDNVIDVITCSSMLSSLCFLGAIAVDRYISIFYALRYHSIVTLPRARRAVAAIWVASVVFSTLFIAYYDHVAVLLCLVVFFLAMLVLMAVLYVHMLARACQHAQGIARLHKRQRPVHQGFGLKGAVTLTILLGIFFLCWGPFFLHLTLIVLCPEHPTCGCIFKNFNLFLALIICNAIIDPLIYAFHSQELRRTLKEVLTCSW
- testName: Melanocortin receptor binding assay, competition with 125I-HP 467, HEK 293 cells expressing hMCR-1
- testContext: 10 μM isoquinoline compound, HEK 293 cells expressing MCR-1, duplicate 2
- Procedure: All cell culture media and reagents were obtained from GibcoBRL (Gaithersburg Md.), except for COSMIC CALF SERUM (HyClone; Logan Utah). Cells were suspended in PBS, 10% COSMIC CALF SERUM and 1 mM CaCl2. […] To assay isoquinoline compounds, binding assays were performed in duplicate in a 96 well format. […] Cells were harvested on GF/B filter plates as described above and counted.
propertyName: % Disp. of 125I-HP 467 (second of duplicate) (%)
Note: unit % is implicit; provide only the numeric part.

Some solved cases for reference:
compound: CNC(CN)CCCCN1Cc2ccccc2C(CNC2CCCCC2)C1c1cccc(OC)c1 (stereo not drawn)
experimentalTarget: MCR-1 (Homo sapiens, UniProt Q01726)
recordedMeasurement: 69.4
--
compound: CNC(CN)CCCCN1Cc2ccccc2C(CNC2CCCCC2)C1c1cccc(Br)c1 (stereo not drawn)
experimentalTarget: MCR-1 (Homo sapiens, UniProt Q01726)
recordedMeasurement: 68.8
--
compound: CNC(CN)CCCCN1Cc2ccccc2C(CNC2CCCCC2)C1c1ccc(F)c(F)c1 (mixture of isomers)
experimentalTarget: MCR-1 (Homo sapiens, UniProt Q01726)
recordedMeasurement: 65.5
--
compound: CNC(CN)CCCCN1Cc2ccccc2C(CNC2CCCCC2)C1c1ccc(Cl)c(Cl)c1 (stereo not drawn)
experimentalTarget: MCR-1 (Homo sapiens, UniProt Q01726)
recordedMeasurement: 69
--
compound: CNC(CN)CCCCN1Cc2ccccc2C(CNC2CCCCC2)C1c1cccc(C)n1 (stereo not drawn)
experimentalTarget: MCR-1 (Homo sapiens, UniProt Q01726)
recordedMeasurement: 47.8
--
compound: CNC(CN)CCCCN1Cc2ccccc2C(CNC2CCCCC2)C1c1ccc(OC)c(C)c1 (mixture of isomers)
experimentalTarget: MCR-1 (Homo sapiens, UniProt Q01726)
recordedMeasurement: 77.7

[in] Note down % Disp. of 125I-HP 467 (second of duplicate) recorded for CNC(CN)CCCCN1Cc2ccccc2C(CNC2CCCCC2)C1c1ccc(SC)cc1 (stereo not drawn)
[out] 47.8

[in] Return the recorded % Disp. of 125I-HP 467 (second of duplicate) value; entry: CNC(CN)CCCCN1Cc2ccccc2C(CNC2CCCCC2)C1c1ccc(F)c(Br)c1 (stereo not drawn)
[out] 67.9

[in] Please indicate % Disp. of 125I-HP 467 (second of duplicate) recorded for CNC(CN)CCCCN1Cc2ccccc2C(CNC2CCCCC2)C1c1cccc(C(F)(F)F)c1 (stereo not drawn)
[out] 70.8

[in] Report measured % Disp. of 125I-HP 467 (second of duplicate); entry is CNC(CN)CCCCN1Cc2ccccc2C(CNC2CCCCC2)C1c1ccc2cccc(O)c2n1 (stereo not drawn)
[out] 66.8

[in] Report measured % Disp. of 125I-HP 467 (second of duplicate); entry is CNC(CN)CN1Cc2ccccc2C(CNC2CCCCC2)C1c1ccc(S(C)(=O)=O)cc1 (stereo not drawn)
[out] 30.7

[in] Indicate its recorded % Disp. of 125I-HP 467 (second of duplicate); the compound in question is CNC(CN)CCCCN1Cc2ccccc2C(CNC2CCCCC2)C1c1cccc(F)c1F (stereo not drawn)
[out] 54.8
